What MIC50 was measured for each of the following?
- System: clostridia
- Test Name: organism not typed
- Type: cell-based
- Details: Clostridia (18 isolates); agar dilution, 48 h; read-out: MIC50
The figure you give is taken to be in µg/mL; do not add the unit.

## Input Quote MIC50 reported for CC(=O)Oc1ccccc1C(=O)Nc1ncc([N+](=O)[O-])s1 [Nitazoxanide] please.
## Output 0.5

## Input Please report the measured MIC50 for O=C(Nc1ncc([N+](=O)[O-])s1)c1ccccc1O [Tizoxanide]
## Output 0.25

---

For each of the compounds below, state its MIC50.
- Test system: fusobacteria
- Test Name: CLSI agar dilution MIC, anaerobic clinical isolates
- Format: cell-based
- Details: Fusobacteria (28 isolates), 48 h
Entry rule: numbers only, all in µg/mL.

## Input Answer with the recorded MIC50 of O=C(Nc1ncc([N+](=O)[O-])s1)c1ccccc1O [Tizoxanide] only.
## Output 0.5

## Input Report measured MIC50; entry is "Cc1ncc([N+](=O)[O-])n1CCO"
## Output 0.25

## Input Quickly give me recorded MIC50 for "CCC[C@@H]1C[C@@H](C(=O)N[C@@H]([C@H]2O[C@H](SC)[C@H](O)[C@@H](O)[C@H]2O)[C@H](C)Cl)N(C)C1"
## Output 0.06

## Input Give the reported MIC50 for this compound. CC(=O)Oc1ccccc1C(=O)Nc1ncc([N+](=O)[O-])s1 [Nitazoxanide]
## Output 1
